Biological target: Ephrin type-A receptor 4 (Homo sapiens, UniProt P54764); note: in the data inactive means no Kd found up to 30 µM
Sequence (P54764 whole entry): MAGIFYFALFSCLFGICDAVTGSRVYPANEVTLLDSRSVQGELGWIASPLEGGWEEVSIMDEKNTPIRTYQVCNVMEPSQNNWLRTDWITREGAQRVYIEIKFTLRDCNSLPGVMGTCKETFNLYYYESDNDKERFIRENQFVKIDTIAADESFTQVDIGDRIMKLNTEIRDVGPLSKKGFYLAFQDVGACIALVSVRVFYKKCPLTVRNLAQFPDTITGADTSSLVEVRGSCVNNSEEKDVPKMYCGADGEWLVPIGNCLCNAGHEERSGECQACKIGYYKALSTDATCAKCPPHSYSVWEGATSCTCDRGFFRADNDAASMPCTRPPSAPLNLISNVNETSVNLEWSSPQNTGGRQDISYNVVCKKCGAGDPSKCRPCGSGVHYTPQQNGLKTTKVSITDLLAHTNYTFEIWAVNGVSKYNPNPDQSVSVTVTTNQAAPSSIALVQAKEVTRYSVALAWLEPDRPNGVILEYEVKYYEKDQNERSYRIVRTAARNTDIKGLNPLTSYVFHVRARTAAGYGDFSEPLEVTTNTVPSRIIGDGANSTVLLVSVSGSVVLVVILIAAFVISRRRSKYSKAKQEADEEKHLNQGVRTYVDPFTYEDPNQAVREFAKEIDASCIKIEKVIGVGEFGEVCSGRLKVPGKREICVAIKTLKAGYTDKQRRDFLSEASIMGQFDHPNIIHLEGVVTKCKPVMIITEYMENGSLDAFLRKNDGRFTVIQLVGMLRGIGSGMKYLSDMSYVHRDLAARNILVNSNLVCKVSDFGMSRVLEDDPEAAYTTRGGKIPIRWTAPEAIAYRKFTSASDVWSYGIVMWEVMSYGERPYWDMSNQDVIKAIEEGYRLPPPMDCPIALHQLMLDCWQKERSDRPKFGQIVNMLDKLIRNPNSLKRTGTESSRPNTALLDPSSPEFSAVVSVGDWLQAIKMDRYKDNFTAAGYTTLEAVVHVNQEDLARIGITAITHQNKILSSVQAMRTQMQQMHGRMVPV
Active and inactive are the calls of the source.
Labels: active, inactive

In [3]: df
Out[3]:
                                   compound  assigned_label
0  COC(=O)[C@@]1(O)C[C@H]2O[C@]1(C)n1c3ccccc3c3c4c(c5c6ccccc6n2c5c31)C(=O)NC4 [K-252A]        inactive
1  O=C(Nc1ccc(-c2ccnc(Nc3ccc(N4CCOCC4)cc3)n2)cc1)C1CCCN1 (centres undefined)        inactive
2  CCS(=O)(=O)N1CC(CC#N)(n2cc(-c3ncnc4[nH]ccc34)cn2)C1        inactive
3  CNC(=O)c1ccc(-c2cnc3ncc(Cc4ccc5ncccc5c4)n3n2)cc1F        inactive
4  CCN1CCN(Cc2ccc(-c3cc4c(N[C@H](C)c5ccccc5)ncnc4[nH]3)cc2)CC1        inactive
5  Cc1cc(-c2cc(O)ccc2Cl)cc2nnc(Nc3ccc(OCCN4CCCC4)cc3)nc12          active
6  COc1cc(N2CCC(N3CCN(C)CC3)CC2)ccc1Nc1ncnc(Nc2ccccc2S(=O)(=O)C(C)C)n1        inactive
7  O=C(Nc1cccc(Cl)c1)Nc1ncc(CCNc2ncnc3ccsc23)s1        inactive
8  O=C(O)[C@]1(Cc2cccc(Nc3nccs3)n2)CC[C@@H](Oc2cccc(Cl)c2F)CC1        inactive
